assay_overview: Isothermal calorimetry (ITC) of peptide binding to low molecular weight HA
conditions_used: 0.9 mM low molecular weight HA (10 kD average) injected into 0.6 mM peptide solution, estimated, read-out: binding constant (Kd)
observable: pKd
Field pKd (float): negative decimal logarithm of the concentration in molar.

Given the entry STMMSRSHKTRSHHV [peptide 15-1] , report its measured pKd.
7.00

# credit: patent US20100290989A1
